Tested on: Glycine max
Experiment: Inhibition of soybean 15-lipoxygenase assessed as rate of disappearance of dissolved oxygen at 25 uM relative to control
Parameters: scale not given: the % may be the effect or the level left
Listed here are molecules together with their documented Activity.
Measurement Type: Activity (%)

[[record]]
molecule = "C[C@H](CC[C@@H](O)[C@@H](O)[C@@H](O)CO[C@H]1[C@H](N)[C@@H](O)[C@H](O)[C@@]1(O)CO)[C@H]1CC[C@]2(C)[C@H]3CC[C@@H]4[C@@]5(C)CCCC(C)(C)[C@@H]5CC[C@@]4(C)[C@]3(C)CC[C@@H]12"
reading = 151

[[record]]
molecule = "CC(=O)OC[C@H](OC(C)=O)[C@H](OC(C)=O)[C@@H](CC[C@@H](C)[C@H]1CC[C@]2(C)[C@H]3CC[C@@H]4[C@@]5(C)CCCC(C)(C)[C@@H]5CC[C@@]4(C)[C@]3(C)CC[C@@H]12)OC(C)=O"
reading = 89

[[record]]
molecule = "O=C1CCN(c2ccccc2)N1"
reading = 34

[[record]]
molecule = "C[C@H](CC[C@@H](O)[C@@H](O)[C@@H](O)CO[C@@H]1O[C@H](CO)[C@@H](O)[C@H](O)[C@H]1N)[C@H]1CC[C@]2(C)[C@H]3CC[C@@H]4[C@@]5(C)CCCC(C)(C)[C@@H]5CC[C@@]4(C)[C@]3(C)CC[C@@H]12"
reading = 172

[[record]]
molecule = "C[C@H](CC[C@@H](O)[C@@H](O)[C@@H](O)CO)[C@H]1CC[C@]2(C)[C@H]3CC[C@@H]4[C@@]5(C)CCCC(C)(C)[C@@H]5CC[C@@]4(C)[C@]3(C)CC[C@@H]12 [TETRAHYDROXYBACTERIOHOPANE]"
reading = 15


Origin of the recorded values: ChEMBL document CHEMBL1158316
